Measured values drawn from patent US20220010021A1 for this set.

Consider the following binders and their measured Emax readings.
molecular target: human FGFR1c + KLB receptor complex on HEK293 iLite FGF21 reporter cells (human, UniProt P11362 22-822; Q86Z14 1-1044); experiment: cell-based or functional assay
Sequence (P11362 22-822, chain 1 of 2): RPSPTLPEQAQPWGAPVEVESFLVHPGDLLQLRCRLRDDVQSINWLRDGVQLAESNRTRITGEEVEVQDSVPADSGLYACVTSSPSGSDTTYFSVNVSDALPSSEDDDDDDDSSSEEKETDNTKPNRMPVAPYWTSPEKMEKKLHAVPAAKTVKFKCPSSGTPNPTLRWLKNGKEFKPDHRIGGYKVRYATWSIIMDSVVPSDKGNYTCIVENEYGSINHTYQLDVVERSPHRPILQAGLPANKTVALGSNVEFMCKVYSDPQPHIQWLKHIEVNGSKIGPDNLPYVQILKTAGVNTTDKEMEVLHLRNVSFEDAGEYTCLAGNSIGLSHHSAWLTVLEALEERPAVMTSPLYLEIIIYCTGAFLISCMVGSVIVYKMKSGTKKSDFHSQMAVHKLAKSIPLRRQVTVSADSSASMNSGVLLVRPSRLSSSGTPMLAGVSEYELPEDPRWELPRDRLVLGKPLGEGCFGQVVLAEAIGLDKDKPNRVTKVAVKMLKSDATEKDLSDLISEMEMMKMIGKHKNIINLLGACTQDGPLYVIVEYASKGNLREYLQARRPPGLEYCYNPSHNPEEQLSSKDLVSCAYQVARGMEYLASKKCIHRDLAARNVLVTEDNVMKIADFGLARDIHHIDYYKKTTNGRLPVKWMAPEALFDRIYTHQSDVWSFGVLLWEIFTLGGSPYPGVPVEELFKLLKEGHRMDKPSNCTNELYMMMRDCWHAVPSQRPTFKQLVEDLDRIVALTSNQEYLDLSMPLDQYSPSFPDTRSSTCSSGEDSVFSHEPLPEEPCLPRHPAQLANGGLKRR
Sequence (Q86Z14 whole entry, chain 2 of 2): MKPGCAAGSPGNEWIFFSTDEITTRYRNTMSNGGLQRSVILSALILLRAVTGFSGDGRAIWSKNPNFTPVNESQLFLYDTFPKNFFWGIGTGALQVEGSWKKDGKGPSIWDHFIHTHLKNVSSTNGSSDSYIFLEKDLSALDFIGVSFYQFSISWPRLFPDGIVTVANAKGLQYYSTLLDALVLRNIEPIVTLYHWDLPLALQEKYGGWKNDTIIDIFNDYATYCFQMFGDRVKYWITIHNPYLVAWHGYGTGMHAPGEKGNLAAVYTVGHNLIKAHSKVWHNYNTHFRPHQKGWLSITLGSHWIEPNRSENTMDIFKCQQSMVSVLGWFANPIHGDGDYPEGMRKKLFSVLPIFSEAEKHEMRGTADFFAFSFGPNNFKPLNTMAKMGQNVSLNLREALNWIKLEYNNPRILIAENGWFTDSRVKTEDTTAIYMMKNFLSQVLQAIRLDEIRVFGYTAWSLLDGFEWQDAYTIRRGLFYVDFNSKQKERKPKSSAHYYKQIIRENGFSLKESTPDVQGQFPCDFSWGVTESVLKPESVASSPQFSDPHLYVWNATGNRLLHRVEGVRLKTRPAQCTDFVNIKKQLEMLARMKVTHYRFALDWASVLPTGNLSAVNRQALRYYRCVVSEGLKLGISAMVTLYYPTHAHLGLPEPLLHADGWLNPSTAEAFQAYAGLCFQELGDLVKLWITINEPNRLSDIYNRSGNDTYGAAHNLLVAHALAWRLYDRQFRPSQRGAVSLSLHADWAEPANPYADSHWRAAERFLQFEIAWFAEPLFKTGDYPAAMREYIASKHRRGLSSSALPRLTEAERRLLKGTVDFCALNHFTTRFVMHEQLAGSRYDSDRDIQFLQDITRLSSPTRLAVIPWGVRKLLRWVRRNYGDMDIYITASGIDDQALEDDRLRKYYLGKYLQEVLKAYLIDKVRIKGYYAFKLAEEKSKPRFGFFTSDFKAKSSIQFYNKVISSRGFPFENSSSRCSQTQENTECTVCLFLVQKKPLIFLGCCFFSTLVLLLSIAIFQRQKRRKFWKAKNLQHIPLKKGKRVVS
measurement_name: Emax (%)

binder: Ab0341 (antibody, IgG4, V domains shown) VH: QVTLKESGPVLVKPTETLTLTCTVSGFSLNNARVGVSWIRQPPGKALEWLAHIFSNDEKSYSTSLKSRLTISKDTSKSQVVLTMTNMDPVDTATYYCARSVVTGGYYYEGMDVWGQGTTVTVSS VL: SYVLTQPPSVSVAPGQTARITCGGSNIGSESVHWYQQKPGQAPVLVVYAYSDRPSGIPERFSGSNSGNTATLTISRVEAGDEADYYCQVWAGSSDHVVFGGGTKLTVLG
measurement_name: Emax
unit_descriptor: %
observed_value: 528

binder: Ab0356 (antibody, IgG4, V domains shown) VH: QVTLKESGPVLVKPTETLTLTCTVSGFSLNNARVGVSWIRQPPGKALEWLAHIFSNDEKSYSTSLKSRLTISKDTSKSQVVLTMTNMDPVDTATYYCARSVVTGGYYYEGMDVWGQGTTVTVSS VL: SYVLTQPPSVSVAPGQTARITCGGSNIGSESVHWYQQKPGQAPVLVVYEASDRPSGIPERFSGSNSGNTATLTISRVEAGDEADYYCQVWAGSSDHVVFGGGTKLTVLG
measurement_name: Emax
unit_descriptor: %
observed_value: 620
